Each recorded value in this set is attributed to patent US20140343017A1.

- Test system: human colorectal cancer HT-29 cells
- test: Inhibitory effect on growth of human cancer cells (in vitro), WST-8
- Type: cell-based
- condition description: Homo sapiens, HT-29, 96 h, 96 hours culture, read-out: IC50 (nM) HT29
readout: IC50

Worked cases, answers included:
C=Cc1[nH]c(-c2nnc(C3CC3)o2)c(C)c1C(=O)c1cccc(Br)c1 [Compound 260] | 0.3 nM
Cc1[nH]c(-c2nnn(CCOC(=O)CN)n2)c(C)c1C(=O)c1cccc(Br)c1 [Compound 152] | 8.3 nM
CCn1nnc(-c2[nH]c(C)c(C(=O)c3cccc(OCCN)c3)c2C)n1 [Compound 165] | 126 nM
CCc1nnc(-c2c(C)c(C(=O)c3cccc(Br)c3)c(C)n2S(=O)(=O)C2CC2)o1 [Compound 227] | 290 nM
Cc1c(-c2nnc(C3CC3)o2)[nH]c(CO)c1C(=O)c1cccc(Br)c1 [Compound 264] | 1.8 nM
COc1ccc(C(=O)c2c(C(F)F)[nH]c(-c3nnc(C4CC4)o3)c2C)cc1Br [Compound 267] | 10.7 nM

Name the recorded IC50 for Cc1nnc(-c2[nH]c(C)c(C(=O)c3cccc(Br)c3)c2C)o1 [Compound 185] .
1.8 nM

Fill blank: measured IC50 of the compound CCc1nnc(-c2[nH]c(C)c(C(=O)c3ccc(OC)c(Br)c3)c2C)o1 [Compound 197] is ____.
0.9 nM

Consider the compound CC(=O)OCCn1nnc(-c2[nH]c(C#N)c(C(=O)c3cccc(Br)c3)c2C)n1 [Compound 132] and give its measured IC50.
179 nM

Reported IC50, compound COc1ccc(C(=O)c2c(C#N)[nH]c(-c3nnn(CCO)n3)c2C)cc1Br [Compound 139] : ____
174 nM

Can you share its IC50? I mean this compound: CNC(=O)c1[nH]c(-c2nnn(CCOC(C)=O)n2)c(C)c1C(=O)c1ccc(OC)c(Br)c1 [Compound 295]
460 nM

Could you share which IC50 value was measured for CCc1nnc(-c2[nH]c(C)c(C(=O)c3cccc(OC)c3)c2C)o1 [Compound 193] ?
2.1 nM

====

- Test system: human colorectal cancer HT-29 cells
- test: Inhibitory effect on growth of human cancer cells (in vitro), WST-8
- Format: cell-based
- condition description: Homo sapiens, HT-29, 96 h, 96 hours culture, read-out: IC50 (nM) HT29
readout: IC50 (nM)
Number only, in nM; omit the unit.

Past entries and their recorded results:
Cc1[nH]c(-c2nnc(CCCl)o2)c(C)c1C(=O)c1cccc(Br)c1 | 38.6
Cc1[nH]c(-c2nnn(CCN)n2)c(Br)c1C(=O)c1cccc(Br)c1 | 123
Cc1[nH]c(-c2nnc(CN)o2)c(C)c1C(=O)c1cccc(Br)c1 | 230

Would you mind telling me what IC50 value was observed for CCn1nnc(-c2[nH]c(C)c(C(=O)c3ccc(OC)c(Br)c3)c2C)n1 ?
1

Look up IC50: COc1ccc(C(=O)c2c(C(C)O)[nH]c(-c3nnc(C4CC4)o3)c2C)cc1Br (centres unmarked)
5.2

Would you mind telling me what IC50 value was observed for Cc1[nH]c(-c2nnc(CO)o2)c(C)c1C(=O)c1cc(Br)ccc1O ?
171

Record request: IC50 value, item Cc1c(-c2nnn(CCO)n2)[nH]c(C(F)F)c1C(=O)c1cccc(Br)c1
42.6

Suppose we examine the compound Cc1[nH]c(-c2nnc(C3CC3C)o2)c(C)c1C(=O)c1cccc(Br)c1 (centres unmarked) ; what IC50 value has been reported?
192

====

- Test system: human colorectal cancer HT-29 cells
- test: Inhibitory effect on growth of human cancer cells (in vitro), WST-8
- Assay type: cell-based
- condition description: Homo sapiens, HT-29, 96 h, 96 hours culture, read-out: IC50 (nM) HT29
# if measured IC50 < 50 nM: TRUE  # else: FALSE

CCc1nnc(-c2[nH]c(C)c(C(=O)c3cccc(Br)c3)c2C)o1 [Compound 173] | TRUE
CCc1nnc(-c2c(C)c(C(=O)c3cccc(Br)c3)c(C)n2CCOC(C)=O)o1 [Compound 235] | FALSE
Cc1[nH]c(-c2nnc(C3CC3)o2)c(C)c1C(=O)c1cccc(Br)c1 [Compound 177] | TRUE

Is the reported IC50 for Cc1[nH]c(-c2nnn(CCO)n2)c(C)c1C(=O)c1ccc(OCCN)c(Br)c1 [Compound 168] strictly below 50 nM?
FALSE

Threshold test, IC50 < 50 nM: CC(=O)OCCn1nnc(-c2[nH]c(C)c(C(=O)c3cccc(Br)c3)c2C)n1 [Compound 104]
TRUE

Please determine if CNC(=O)c1[nH]c(-c2nnn(CCO)n2)c(C)c1C(=O)c1ccc(OC)c(Br)c1 [Compound 149] is below 50 nM in terms of IC50.
FALSE

Please let me know if Cc1[nH]c(-c2nnc(C3CCC3)o2)c(C)c1C(=O)c1cccc(Br)c1 [Compound 179] shows IC50 below 50 nM.
FALSE

====

- System: human colorectal cancer HCT116 cells
- test: Inhibitory effect on growth of human cancer cells (in vitro), WST-8
- Format: cell-based
- condition description: Homo sapiens, HCT-116, 96 h, 96 hours culture
readout: log10 IC50 (log10 of the value in nM)
Friendly reminder: values = log10 of IC50, unit nM.

// worked examples, log10 IC50 included
C=Cc1[nH]c(-c2nnc(C3CC3)o2)c(C)c1C(=O)c1cccc(Br)c1 | -0.52
CCc1nnc(-c2c(C)c(C(=O)c3cccc(Br)c3)c(C)n2S(C)(=O)=O)o1 | 0.96

Hello, I am looking for reported log10 IC50 with human colorectal cancer HCT116 cells for Cc1[nH]c(-c2nnc(C3(C)CC3)o2)c(C)c1C(=O)c1cccc(Br)c1 . Could you help?
2.30

What log10 IC50 appears in the records for this compound with human colorectal cancer HCT116 cells? Cc1c(-c2nnn(CCN)n2)[nH]c(CO)c1C(=O)c1cccc(Br)c1
2.40

Form field - read-out: log10 IC50; system: human colorectal cancer HCT116 cells; submitted item: Cc1c(-c2nnc(C3CC3)o2)[nH]c(CO)c1C(=O)c1cccc(Br)c1
0.26

Look up log10 IC50 with human colorectal cancer HCT116 cells for this compound: CCn1nnc(-c2[nH]c(C)c(C(=O)c3cccc(Br)c3)c2C)n1
0.61

Observed log10 IC50 on human colorectal cancer HCT116 cells for COc1ccc(C(=O)c2c(C(F)F)[nH]c(-c3nnc(C4CC4)o3)c2C)cc1Br , please.
1.59

Please tell me: log10 IC50 of CCn1nnc(-c2[nH]c(C)c(C(=O)c3ccc(OCCN)c(Br)c3)c2C)n1 , system human colorectal cancer HCT116 cells?
1.60

Requested read-out log10 IC50, target or system human colorectal cancer HCT116 cells, entry COc1ccc(C(=O)c2c(C#N)[nH]c(-c3nnn(CCO)n3)c2C)cc1Br
2.23

====

- Test system: human colorectal cancer HCT116 cells
- test: Inhibitory effect on growth of human cancer cells (in vitro), WST-8
- Type: cell-based
- condition description: Homo sapiens, HCT-116, 96 h, 96 hours culture
readout: IC50 (nM)
// units = nM; emit number, no label

Cc1[nH]c(-c2nnn(CCOC(=O)CN)n2)c(C)c1C(=O)c1cccc(Br)c1 | 7.8

What does the record list as IC50 for CCc1nnc(-c2c(C)c(C(=O)c3cccc(Br)c3)c(C)n2CCOC(C)=O)o1 ?
239

Param item = Cc1[nH]c(-c2nnn(CCO)n2)c(C)c1C(=O)c1ccc(OCCN)c(Br)c1 ; retrieve measured IC50.
506

Which IC50 is listed for COc1ccc(C(=O)c2c(C(N)=O)[nH]c(-c3nnn(CCO)n3)c2C)cc1Br ?
181

For the compound Cc1[nH]c(-c2nnn(CCO)n2)c(C)c1C(=O)c1cccc(Br)c1 , what IC50 is on record?
9.5

Name the reported IC50 value associated with the compound CCc1nnc(-c2[nH]c(C)c(C(=O)c3ccc(OC)c(Br)c3)c2C)o1
1.4

Entry under review: Cc1c(-c2nnn(CCO)n2)[nH]c(C(C)O)c1C(=O)c1cccc(Br)c1 (centres unmarked) . Reported IC50?
46.1

Please look up its IC50: CCc1nnc(-c2[nH]c(C)c(C(=O)c3ccc(OCCN)c(Br)c3)c2C)o1
55.3

====

- System: human colorectal cancer HT-29 cells
- test: Inhibitory effect on growth of human cancer cells (in vitro), WST-8
- Type: cell-based
- condition description: Homo sapiens, HT-29, 96 h, 96 hours culture, read-out: IC50 (nM) HT29
- Method: Each pyrrole compound of the present invention was studied for its effects on the growth of human non-small cell lung cancer A549 cells and human colorectal cancer HT-29 cells and HCT116 cells. […] After the completion of culture, WST-8 (Seikagaku Corp.) was added thereto at a concentration of 10 μL/well, and the cells were cultured at 37° C. for approximately 1 hour under 5% CO2 conditions, followed by measurement of absorbance at 450 nm.
readout: IC50
Please provide the amount together with its unit, number first.

Use these answered entries as a reference point.
CCc1nnc(-c2c(C)c(C(=O)c3cccc(Br)c3)c(C)n2C)o1 | 28.1 nM
Cc1[nH]c(-c2nnc(C3(C)CC3)o2)c(C)c1C(=O)c1cccc(Br)c1 | 135 nM

# query: IC50 of entry COc1ccc(C(=O)c2c(C)[nH]c(-c3nnc(C4CC4)o3)c2C)cc1Br
0.3 nM

What value of IC50 has been recorded for this entry: CC(=O)OCc1nnc(-c2[nH]c(C)c(C(=O)c3cccc(Br)c3)c2C)o1
39.3 nM
